Source: patent US20240024488A1

# TARGET OR SYSTEM: HiBit-BRM fusion protein (Homo sapiens, UniProt P51531)
# Construct: expressed in transfected cells
# Sequence (P51531 whole entry, the tested form may be a part): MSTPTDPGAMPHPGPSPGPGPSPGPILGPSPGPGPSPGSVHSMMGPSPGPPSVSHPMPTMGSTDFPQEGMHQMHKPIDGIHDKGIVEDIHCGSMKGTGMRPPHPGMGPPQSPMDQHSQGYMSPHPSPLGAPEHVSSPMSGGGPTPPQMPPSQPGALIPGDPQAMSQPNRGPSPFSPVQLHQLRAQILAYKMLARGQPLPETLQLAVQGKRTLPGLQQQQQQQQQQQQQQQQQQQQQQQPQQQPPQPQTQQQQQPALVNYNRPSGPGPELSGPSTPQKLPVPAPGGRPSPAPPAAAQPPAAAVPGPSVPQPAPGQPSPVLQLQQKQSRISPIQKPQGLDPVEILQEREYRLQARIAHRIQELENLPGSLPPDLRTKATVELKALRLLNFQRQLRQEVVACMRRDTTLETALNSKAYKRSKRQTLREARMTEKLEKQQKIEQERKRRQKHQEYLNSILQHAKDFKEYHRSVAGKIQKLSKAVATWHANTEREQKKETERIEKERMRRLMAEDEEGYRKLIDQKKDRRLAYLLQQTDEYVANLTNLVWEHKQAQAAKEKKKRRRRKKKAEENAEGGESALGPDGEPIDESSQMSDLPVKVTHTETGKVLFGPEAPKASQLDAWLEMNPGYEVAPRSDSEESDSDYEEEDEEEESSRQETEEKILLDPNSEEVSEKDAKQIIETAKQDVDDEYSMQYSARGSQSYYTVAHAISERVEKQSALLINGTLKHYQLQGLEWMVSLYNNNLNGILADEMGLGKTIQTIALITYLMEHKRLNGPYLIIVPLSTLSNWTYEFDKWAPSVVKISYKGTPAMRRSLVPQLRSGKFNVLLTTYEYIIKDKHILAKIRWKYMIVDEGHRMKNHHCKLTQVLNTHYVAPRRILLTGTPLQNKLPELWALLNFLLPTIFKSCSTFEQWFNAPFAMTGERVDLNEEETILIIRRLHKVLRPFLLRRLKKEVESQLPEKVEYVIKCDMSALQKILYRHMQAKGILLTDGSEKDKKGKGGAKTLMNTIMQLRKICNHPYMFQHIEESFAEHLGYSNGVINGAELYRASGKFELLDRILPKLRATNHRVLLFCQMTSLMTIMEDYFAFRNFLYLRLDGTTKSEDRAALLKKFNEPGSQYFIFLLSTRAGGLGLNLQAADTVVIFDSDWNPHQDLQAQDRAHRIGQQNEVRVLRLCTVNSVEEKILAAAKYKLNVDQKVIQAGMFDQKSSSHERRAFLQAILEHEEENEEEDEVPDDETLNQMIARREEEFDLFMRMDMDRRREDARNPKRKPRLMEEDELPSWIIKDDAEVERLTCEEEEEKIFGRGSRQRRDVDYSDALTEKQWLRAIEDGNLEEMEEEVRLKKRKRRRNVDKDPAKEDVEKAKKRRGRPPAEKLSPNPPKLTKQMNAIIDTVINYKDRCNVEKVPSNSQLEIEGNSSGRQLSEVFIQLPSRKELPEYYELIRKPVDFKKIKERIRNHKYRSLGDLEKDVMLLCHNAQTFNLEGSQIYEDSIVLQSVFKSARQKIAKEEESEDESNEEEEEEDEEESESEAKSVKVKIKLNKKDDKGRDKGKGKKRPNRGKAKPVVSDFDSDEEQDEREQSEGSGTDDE
# PROTOCOL SUMMARY: HiBiT-BRM cell-based degradation assay (Nano-Glo HiBiT Lytic Detection, 24 h)
# RUN CONDITIONS: HeLa cell line expressing HiBiT-BRM, read-out: BRM HiBit Degradation IC50
# Experimental: Procedure: A stable HeLa cell line expressing HiBiT-BRM was generated. On day 0, 5000 cells were seeded in 40 μL of media into each well of 384-well cell culture plates. […] The plates were shaken for 10 minutes at room temperature and the bioluminescence read using an EnVision plate reader (PerkinElmer). The degradation % was calculated using the following formula: % degradation=100%−100%×(LumSample−LumLC)/(LumHC−LumLC). […]
Each record here notes measured DC50.

The following molecules have reported results that may help.
Kindly note the recorded DC50 for Cc1ncsc1-c1ccc(CNC(=O)[C@@H]2C[C@@H](O)CN2C(=O)[C@@H](NC(=O)CCCCC(=O)N[C@H]2CCc3[nH]c4nnc(-c5ccccc5O)cc4c3C2)C(C)(C)C)cc1 (relative stereo) , which is > 1000 nM

Kindly note the recorded DC50 for `Cc1ncsc1-c1ccc(CNC(=O)[C@@H]2C[C@@H](O)CN2C(=O)[C@@H](NC(=O)CCCCCCCC(=O)N2CC(c3cc4cc(-c5ccccc5O)nnc4[nH]3)C2)C(C)(C)C)cc1` , which is > 1000 nM

Kindly note the recorded DC50 for Cc1ncsc1-c1ccc([C@H](C)NC(=O)[C@@H]2C[C@@H](O)CN2C(=O)C(c2cc(N3CCC(C(=O)N4CC(c5cc6cc(-c7ccccc7O)nnc6[nH]5)C4)CC3)no2)C(C)C)cc1 (mixture of isomers) , which is > 10 nM

Others:
Kindly note the recorded DC50 for Cc1ncsc1-c1ccc([C@H](C)NC(=O)[C@@H]2C[C@@H](O)CN2C(=O)[C@@H](c2cc(OCCN3C[C@@H]4[C@H](C3)[C@H]4c3[nH]c4nnc(-c5cc(F)cc(F)c5O)cc4c3C)no2)C(C)C)cc1 (racemic) , which is > 10 nM

###

# TARGET OR SYSTEM: HiBit-BRM fusion protein (Homo sapiens)
# Construct: expressed in transfected cells
# PROTOCOL SUMMARY: HiBiT-BRM cell-based degradation assay (Nano-Glo HiBiT Lytic Detection, 24 h)
# RUN CONDITIONS: HeLa cell line expressing HiBiT-BRM, read-out: BRM HiBit Degradation IC50
Each record here notes measured DC50.

The following compounds have reported results that may help.
Hey, HiBit-BRM fusion protein (Homo sapiens) data for Cc1ncsc1-c1ccc([C@H](C)NC(=O)[C@@H]2C[C@@H](O)CN2C(=O)[C@@H](c2cc(OCCN3CC4(CC(c5c[nH]c6nnc(-c7ccccc7O)cc56)C4)C3)no2)C(C)C)cc1 (racemic) : DC50 came out at > 10 nM

Hey, HiBit-BRM fusion protein (Homo sapiens) data for Cc1ncsc1-c1ccc([C@H](C)NC(=O)[C@@H]2C[C@@H](O)CN2C(=O)[C@@H](c2cc(OCCN3CCN(c4cc5cc(-c6ccccc6O)nnc5[nH]4)CC3)no2)C(C)C)cc1 (racemic) : DC50 came out at > 10 nM

Others:
Hey, HiBit-BRM fusion protein (Homo sapiens) data for `Cc1ncsc1-c1ccc([C@H](C)NC(=O)[C@@H]2C[C@@H](O)CN2C(=O)[C@@H](c2cc(N3C[C@H]4C[C@@H]3CN4C(=O)[C@@H]3CCc4[nH]c5nnc(-c6ccccc6O)cc5c4C3)no2)C(C)C)cc1` : DC50 came out at < 10 nM

Hey, HiBit-BRM fusion protein (Homo sapiens) data for Cc1ncsc1-c1ccc([C@H](C)NC(=O)[C@@H]2C[C@@H](O)CN2C(=O)[C@@H](c2cc(OCCN3CCC(c4[nH]c5nnc(-c6ccccc6O)cc5c4C)CC3)no2)C(C)C)cc1 (racemic) : DC50 came out at < 10 nM

###

# TARGET OR SYSTEM: HiBit-BRG1 fusion protein (Homo sapiens)
# Construct: expressed in transfected cells
# Sequence (P51532 whole entry, the tested form may be a part): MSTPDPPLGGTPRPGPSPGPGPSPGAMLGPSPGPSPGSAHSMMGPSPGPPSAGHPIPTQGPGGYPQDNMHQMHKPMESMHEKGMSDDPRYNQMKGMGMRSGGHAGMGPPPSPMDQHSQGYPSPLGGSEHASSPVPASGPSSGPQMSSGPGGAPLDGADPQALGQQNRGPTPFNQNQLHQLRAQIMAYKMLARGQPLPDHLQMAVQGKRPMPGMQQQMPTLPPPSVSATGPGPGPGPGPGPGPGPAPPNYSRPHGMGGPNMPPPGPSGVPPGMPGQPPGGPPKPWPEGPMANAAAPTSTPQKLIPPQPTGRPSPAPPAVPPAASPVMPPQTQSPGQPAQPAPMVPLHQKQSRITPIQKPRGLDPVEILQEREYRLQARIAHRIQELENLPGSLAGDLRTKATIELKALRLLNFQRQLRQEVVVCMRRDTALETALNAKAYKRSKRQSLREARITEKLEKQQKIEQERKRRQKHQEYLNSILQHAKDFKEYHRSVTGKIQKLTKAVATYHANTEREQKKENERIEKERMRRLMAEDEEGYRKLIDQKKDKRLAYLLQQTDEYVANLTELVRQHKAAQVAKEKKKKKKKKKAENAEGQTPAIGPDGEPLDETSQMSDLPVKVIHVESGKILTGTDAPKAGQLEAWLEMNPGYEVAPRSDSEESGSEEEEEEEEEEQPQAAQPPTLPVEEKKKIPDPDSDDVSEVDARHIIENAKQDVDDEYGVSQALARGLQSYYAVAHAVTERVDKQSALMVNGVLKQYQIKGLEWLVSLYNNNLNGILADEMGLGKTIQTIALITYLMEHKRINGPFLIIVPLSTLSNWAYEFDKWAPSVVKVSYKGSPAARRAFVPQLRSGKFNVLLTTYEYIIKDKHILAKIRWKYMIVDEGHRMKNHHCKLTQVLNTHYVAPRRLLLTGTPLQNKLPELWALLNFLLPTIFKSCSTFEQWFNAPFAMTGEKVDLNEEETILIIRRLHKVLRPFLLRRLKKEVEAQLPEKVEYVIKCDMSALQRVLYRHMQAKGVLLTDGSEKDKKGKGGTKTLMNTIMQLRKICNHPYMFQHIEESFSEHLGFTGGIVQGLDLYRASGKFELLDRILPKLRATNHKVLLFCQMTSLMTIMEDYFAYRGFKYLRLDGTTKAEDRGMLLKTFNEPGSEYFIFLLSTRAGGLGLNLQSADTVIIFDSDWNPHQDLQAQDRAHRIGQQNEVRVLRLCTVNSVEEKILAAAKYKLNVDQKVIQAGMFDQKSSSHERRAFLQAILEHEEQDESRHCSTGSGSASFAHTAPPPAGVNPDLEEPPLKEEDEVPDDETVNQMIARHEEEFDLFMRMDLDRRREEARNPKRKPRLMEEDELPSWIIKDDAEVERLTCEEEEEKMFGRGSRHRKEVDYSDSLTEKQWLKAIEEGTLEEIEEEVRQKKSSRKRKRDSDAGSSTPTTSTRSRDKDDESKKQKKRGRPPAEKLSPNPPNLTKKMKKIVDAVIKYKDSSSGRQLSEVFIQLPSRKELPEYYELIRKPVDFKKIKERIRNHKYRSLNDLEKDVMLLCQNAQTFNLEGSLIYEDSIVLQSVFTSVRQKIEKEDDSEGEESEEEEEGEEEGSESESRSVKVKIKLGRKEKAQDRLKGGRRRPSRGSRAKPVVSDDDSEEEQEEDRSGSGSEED
# PROTOCOL SUMMARY: HiBiT-BRG1 cell-based degradation assay (Nano-Glo HiBiT Lytic Detection, 24 h)
# RUN CONDITIONS: HeLa cell line expressing HiBit-BRG1 and LgBit, read-out: BRG1 HiBit Degradation Maximum (%)
METRIC: Dmax

The following molecules have reported results that may help.
Kindly note the recorded Dmax for Cc1ncsc1-c1ccc([C@H](C)NC(=O)[C@@H]2C[C@@H](O)CN2C(=O)[C@H](c2cc(CCCN3CC(c4cc5cc(-c6ccccc6O)nnc5[nH]4)C3)no2)C(C)C)cc1 (single isomer, unassigned) , which is < 50%

Kindly note the recorded Dmax for Cc1ncsc1-c1ccc([C@H](C)NC(=O)[C@@H]2C[C@@H](O)CN2C(=O)[C@@H](c2cc(OCCN3CC(C4(C)Cc5cc(-c6ccccc6O)nnc5N4)C3)no2)C(C)C)cc1 (some centres unmarked) , which is > 50%

Kindly note the recorded Dmax for Cc1ncsc1-c1ccc([C@H](C)NC(=O)[C@@H]2C[C@@H](O)CN2C(=O)[C@@H](c2cc(OCCN3CC(c4[nH]c5nnc(-c6cc(F)cc(Cl)c6O)cc5c4C)C3)no2)C(C)C)cc1 (racemic) , which is > 50%

Kindly note the recorded Dmax for Cc1ncsc1-c1ccc(CNC(=O)[C@@H]2C[C@@H](O)CN2C(=O)[C@@H](NC(=O)CCCC(=O)N[C@H]2CCc3[nH]c4nnc(-c5ccccc5O)cc4c3C2)C(C)(C)C)cc1 (single isomer, unassigned) , which is < 50%

Kindly note the recorded Dmax for Cc1ncsc1-c1ccc(CNC(=O)[C@@H]2C[C@@H](O)CN2C(=O)[C@@H](NC(=O)C2(F)CC2)C(C)(C)C)c(OCCN2CC(c3cc4cc(-c5ccccc5O)nnc4[nH]3)C2)c1 (racemic) , which is < 50%

Kindly note the recorded Dmax for Cc1ncsc1-c1ccc(CNC(=O)[C@@H]2C[C@@H](O)CN2C(=O)[C@@H](NC(=O)CCCCCNCCC(=O)N2CC(c3cc4cc(-c5ccccc5O)nnc4[nH]3)C2)C(C)(C)C)cc1 (racemic) , which is < 50%

Kindly note the recorded Dmax for Cc1ncsc1-c1ccc([C@H](C)NC(=O)[C@@H]2C[C@@H](O)CN2C(=O)[C@@H](c2cc(N3CCC(N(C)[C@H]4CCc5[nH]c6nnc(-c7ccccc7O)cc6c5C4)CC3)no2)C(C)C)cc1 (racemic) , which is > 50%

Kindly note the recorded Dmax for Cc1ncsc1-c1ccc([C@H](C)NC(=O)[C@@H]2C[C@@H](O)CN2C(=O)[C@@H](c2cc(C3CN(Cc4cc5cc(-c6ccccc6O)nnc5[nH]4)C3)no2)C(C)C)cc1 (racemic) , which is < 50%

Others:
Kindly note the recorded Dmax for Cc1ncsc1-c1ccc([C@H](C)NC(=O)[C@@H]2C[C@@H](O)CN2C(=O)[C@@H](c2cc(OCCN3CCC4(CC3)CC(c3cc5cc(-c6ccccc6O)nnc5[nH]3)C4)no2)C(C)C)cc1 (racemic) , which is > 50%

Kindly note the recorded Dmax for Cc1ncsc1-c1ccc([C@H](C)NC(=O)[C@@H]2C[C@@H](O)CN2C(=O)[C@H](c2cc(N3CC(CN4CC(c5cc6cc(-c7ccccc7O)nnc6[nH]5)C4)C3)no2)C(C)C)cc1 (single isomer, unassigned) , which is > 50%

Kindly note the recorded Dmax for CC(C)[C@@H](C(=O)N1C[C@H](O)C[C@H]1C(=O)N[C@@H](C)c1ccc(-c2ccccc2F)cc1)c1cc(OCCN2CC(c3cc4cc(-c5ccccc5O)nnc4[nH]3)C2)no1 (single isomer, unassigned) , which is > 50%

Kindly note the recorded Dmax for Cc1ncsc1-c1ccc([C@H](C)NC(=O)[C@@H]2C[C@@H](O)CN2C(=O)[C@@H](c2cc(OCCN3CCC(c4c(C)[nH]c5nnc(-c6ccccc6O)cc45)CC3)no2)C(C)C)cc1 (racemic) , which is < 50%

Kindly note the recorded Dmax for Cc1ncsc1-c1ccc([C@H](C)NC(=O)[C@@H]2C[C@@H](O)CN2C(=O)[C@@H](c2cc(C3CN(C(=O)[C@@H]4CCc5[nH]c6nnc(-c7ccccc7O)cc6c5C4)C3)no2)C(C)C)cc1 (single isomer, unassigned) , which is < 50%

Kindly note the recorded Dmax for Cc1ncsc1-c1ccc([C@H](C)NC(=O)[C@@H]2C[C@@H](O)CN2C(=O)[C@@H](c2cc(C3CCN(C(=O)[C@@]4(N)CCc5[nH]c6nnc(-c7ccccc7O)cc6c5C4)CC3)no2)C(C)C)cc1 (relative stereo) , which is < 50%

Kindly note the recorded Dmax for Cc1ncsc1-c1ccc([C@H](C)NC(=O)[C@@H]2C[C@@H](O)CN2C(=O)[C@@H](c2cc(OCCCN[C@@H]3CCc4[nH]c5nnc(-c6ccccc6O)cc5c4C3)no2)C(C)C)cc1 (single isomer, unassigned) , which is < 50%

Kindly note the recorded Dmax for Cc1ncsc1-c1ccc([C@H](C)NC(=O)[C@@H]2C[C@@H](O)CN2C(=O)[C@@H](c2cc(OCCN3CCN(CCN4CC(c5cc6cc(-c7ccccc7O)nnc6[nH]5)C4)CC3)no2)C(C)C)cc1 (racemic) , which is > 75%

Kindly note the recorded Dmax for Cc1ncsc1-c1ccc([C@H](C)NC(=O)[C@@H]2C[C@@H](O)CN2C(=O)[C@@H](c2cc(OCCN3C[C@@H]4[C@H](C3)[C@H]4c3cc4cc(-c5cccc(F)c5O)nnc4[nH]3)no2)C(C)C)cc1 (racemic) , which is < 50%
